# assay name: Measurement of logP values by HPLC on reversed phase columns (EEC directive 79/831 Annex V.A8)
# Assay type: physicochemical
# experimental conditions: HPLC, pH 2.7, 0.1% formic acid; main isomer
measured property: Log P [I1] main isomer

molecule: Cc1snnc1C(=NOCc1cccc(NC(=O)COc2ccccc2)n1)c1ccccc1 (mixture of isomers)
value observed: 4.14

molecule: COc1ccccc1OCC(=O)Nc1cccc(CON=C(c2ccccc2)c2nnsc2C)n1 (mixture of isomers)
value observed: 4.24

molecule: Cc1snnc1C(=NOCc1csc(NC(=O)CSc2ccccc2)n1)c1ccccc1 (mixture of isomers)
value observed: 3.89

molecule: Cc1snnc1C(=NOCc1cccc(NC(=O)COc2ccccc2Cl)n1)c1ccccc1 (mixture of isomers)
value observed: 4.61

* * *

# assay name: Measurement of logP values by HPLC on reversed phase columns (EEC directive 79/831 Annex V.A8)
# Assay type: physicochemical
# experimental conditions: reversed phase HPLC columns, pH 2.7, mixture of Z and E diastereoisomers, preparation example 1; read-out: logP(HCOOH)
measured property: chromatographic logP

compound: Cc1snnc1C(=NOCc1csc(NC(=O)COC2CCCCC2)n1)c1ccccc1 [Example 59]
value observed: 4.41

* * *

Let's look at some compounds and their measured Log P.
# assay name: Measurement of logP values by HPLC on reversed phase columns (EEC directive 79/831 Annex V.A8)
# Format: physicochemical
# experimental conditions: HPLC, pH 2.7, 0.1% formic acid in water / acetonitrile; single value

compound: Cc1snnc1C(=NOCc1csc(NC(=O)C(C)Oc2ccccc2)n1)c1ccccc1 (centres unmarked)
Log P: 4.04
--
compound: C=CCOC(C)C(=O)Nc1cccc(CON=C(c2ccccc2)c2nnsc2C)n1 (centres unmarked)
Log P: 3.94
--
compound: Cc1snnc1C(=NOCc1csc(NC(=O)C(C)OC2CCCCC2)n1)c1ccccc1 (centres unmarked)
Log P: 4.76
--
compound: Cc1snnc1C(=NOCc1csc(NC(=O)C(C)Oc2ccc(F)cc2)n1)c1ccccc1 (centres unmarked)
Log P: 4.06
--
compound: Cc1snnc1C(=NOCc1csc(NC(=O)CSC2CCCCC2)n1)c1ccccc1
Log P: 4.46
--
compound: Cc1snnc1C(=NOCc1cccc(NC(=O)COCC2CCCCO2)n1)c1ccccc1 (centres unmarked)
Log P: 3.92
--
compound: Cc1snnc1C(=NOCc1cccc(NC(=O)C(C)OC2CCCCC2)n1)c1ccccc1 (centres unmarked)
Log P: 5.22
--
compound: Cc1snnc1C(=NOCc1csc(NC(=O)COCC(C)C)n1)c1ccccc1
Log P: 4.01

* * *

# assay name: Measurement of logP values by HPLC on reversed phase columns (EEC directive 79/831 Annex V.A8)
# Assay type: physicochemical
# experimental conditions: pH 2.7, HPLC, pH 2.7, 0.1% formic acid; main isomer; read-out: Log P [I1] main isomer

record smiles: Cc1snnc1C(=NOCc1csc(NC(=O)COC2CCCCC2)n1)c1ccccc1
chromatographic logP: 4.41

* * *

# assay name: Measurement of logP values by HPLC on reversed phase columns (EEC directive 79/831 Annex V.A8)
# Type: physicochemical
# experimental conditions: HPLC, pH 2.7, 0.1% formic acid in water / acetonitrile; single value
# label = 1 (yes) if Log P >= 4 else 0 (no)

record smiles: Cc1snnc1C(=NOCc1csc(NC(=O)COc2cccc(Cl)c2)n1)c1ccccc1
class label: 1 (yes)

record smiles: Cc1snnc1C(=NOCc1cccc(NC(=O)COCCC2CCCC2)n1)c1ccccc1
class label: 1 (yes)

record smiles: C#CCOCC(=O)Nc1cccc(CON=C(c2ccccc2)c2nnsc2C)n1
class label: 0 (no)

* * *

Let's look at some compounds and their measured Log P [I1] main isomer.
# assay name: Measurement of logP values by HPLC on reversed phase columns (EEC directive 79/831 Annex V.A8)
# Assay type: physicochemical
# experimental conditions: HPLC, pH 2.7, 0.1% formic acid; main isomer

compound: COc1ccccc1OCC(=O)Nc1nc(CON=C(c2ccccc2)c2nnsc2C)cs1 (mixture of isomers)
Log P [I1] main isomer: 3.89
--
compound: CC(=O)OC(C)(C)C(=O)Nc1cccc(CON=C(c2ccccc2)c2nnsc2C)n1 (mixture of isomers)
Log P [I1] main isomer: 3.48
--
compound: Cc1snnc1C(=NOCc1cccc(NC(=O)COc2cccc(Cl)c2)n1)c1ccccc1 (mixture of isomers)
Log P [I1] main isomer: 4.53
--
compound: Cc1snnc1C(=NOCc1csc(NC(=O)COCc2ccccc2)n1)c1ccccc1 (mixture of isomers)
Log P [I1] main isomer: 3.96
--
compound: CC(=O)OC(C)(C)C(=O)Nc1nc(CON=C(c2ccccc2)c2nnsc2C)cs1 (mixture of isomers)
Log P [I1] main isomer: 3.35
--
compound: Cc1snnc1C(=NOCc1csc(NC(=O)COc2ccccc2Cl)n1)c1ccccc1 (mixture of isomers)
Log P [I1] main isomer: 4.19
--
compound: CC(=O)OCC(=O)Nc1cccc(CON=C(c2ccccc2)c2nnsc2C)n1 (mixture of isomers)
Log P [I1] main isomer: 2.93
--
compound: CC(=O)OCC(=O)Nc1nc(CON=C(c2ccccc2)c2nnsc2C)cs1 (mixture of isomers)
Log P [I1] main isomer: 2.78
--
compound: Cc1snnc1C(=NOCc1csc(NC(=O)C(F)(F)Oc2ccccc2)n1)c1ccccc1 (mixture of isomers)
Log P [I1] main isomer: 4.25
--
compound: Cc1snnc1C(=NOCc1cccc(NC(=O)COCc2ccccc2)n1)c1ccccc1 (mixture of isomers)
Log P [I1] main isomer: 4.34
--
compound: Cc1snnc1C(=NOCc1cccc(NC(=O)COc2ccc(Cl)cc2)n1)c1ccccc1 (mixture of isomers)
Log P [I1] main isomer: 4.51

* * *

# assay name: Measurement of logP values by HPLC on reversed phase columns (EEC directive 79/831 Annex V.A8)
# Format: physicochemical
# experimental conditions: HPLC, pH 2.7, 0.1% formic acid in water / acetonitrile; single value
# label = True if Log P >= 4 else False

molecule: C#CCOC(CC)C(=O)Nc1nc(CON=C(c2ccccc2)c2nnsc2C)cs1 (stereo not drawn)
class label: False

molecule: Cc1snnc1C(=NOCc1csc(NC(=O)COCC2CCCC2)n1)c1ccccc1
class label: True

molecule: C=CCSCC(=O)Nc1cccc(CON=C(c2ccccc2)c2nnsc2C)n1
class label: False

molecule: CCOC(C)(C)C(=O)Nc1cccc(CON=C(c2ccccc2)c2nnsc2C)n1
class label: True

molecule: Cc1snnc1C(=NOCc1cccc(NC(=O)COCc2ccccc2)n1)c1ccccc1
class label: True

molecule: Cc1snnc1C(=NOCc1csc(NC(=O)COCCC(C)C)n1)c1ccccc1
class label: True

molecule: Cc1snnc1C(=NOCc1cccc(NC(=O)C(C)OCC2CCCCC2)n1)c1ccccc1 (stereo not drawn)
class label: True

molecule: C=CCOC(C)C(=O)Nc1nc(CON=C(c2ccccc2)c2nnsc2C)cs1 (stereo not drawn)
class label: False

* * *

# assay name: Measurement of logP values by HPLC on reversed phase columns (EEC directive 79/831 Annex V.A8)
# Format: physicochemical
# experimental conditions: pH 2.7, HPLC, pH 2.7, 0.1% formic acid; minor isomer; read-out: Log P [I2] minor isomer

record smiles: Cc1snnc1C(=NOCc1csc(NC(=O)COC2CCCCC2)n1)c1ccccc1
chromatographic logP: 4.32

Taken from patent US20130116287A1.
